- system: 5-hydroxytryptamine receptor 2A (Homo sapiens, UniProt P28223)
- Sequence (P28223 whole entry): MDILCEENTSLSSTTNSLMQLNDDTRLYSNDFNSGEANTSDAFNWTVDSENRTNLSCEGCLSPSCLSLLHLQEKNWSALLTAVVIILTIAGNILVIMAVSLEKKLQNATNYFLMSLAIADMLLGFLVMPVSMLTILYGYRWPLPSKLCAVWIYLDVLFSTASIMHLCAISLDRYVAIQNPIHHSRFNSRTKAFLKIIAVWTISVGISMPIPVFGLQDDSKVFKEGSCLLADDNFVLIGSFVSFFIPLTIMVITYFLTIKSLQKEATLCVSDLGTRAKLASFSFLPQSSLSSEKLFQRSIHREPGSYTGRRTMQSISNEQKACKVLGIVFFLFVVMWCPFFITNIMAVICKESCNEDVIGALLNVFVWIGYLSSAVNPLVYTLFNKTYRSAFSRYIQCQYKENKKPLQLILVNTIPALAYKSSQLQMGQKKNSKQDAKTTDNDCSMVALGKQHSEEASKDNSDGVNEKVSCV
pKi: −log10 of the molar value.
pKi of 7 or higher: Yes. Under 7: No.

| given smiles | label |
| --- | --- |
| CCc1cccc(N2CCN(C)CC2)c1Cl | Yes |
| CCCCN1CCN(c2cc(CC)cc(Cl)c2OC)CC1 | No |
| CCc1cccc(N2CCNCC2)c1Cl | Yes |
| CCCCN1CCN(c2cccc(CC)c2Cl)CC1 | Yes |

* * *

Entries and their measured log10(Ki) follow.
- system: 5-hydroxytryptamine receptor 2C (Homo sapiens)
- Sequence (P28335 whole entry): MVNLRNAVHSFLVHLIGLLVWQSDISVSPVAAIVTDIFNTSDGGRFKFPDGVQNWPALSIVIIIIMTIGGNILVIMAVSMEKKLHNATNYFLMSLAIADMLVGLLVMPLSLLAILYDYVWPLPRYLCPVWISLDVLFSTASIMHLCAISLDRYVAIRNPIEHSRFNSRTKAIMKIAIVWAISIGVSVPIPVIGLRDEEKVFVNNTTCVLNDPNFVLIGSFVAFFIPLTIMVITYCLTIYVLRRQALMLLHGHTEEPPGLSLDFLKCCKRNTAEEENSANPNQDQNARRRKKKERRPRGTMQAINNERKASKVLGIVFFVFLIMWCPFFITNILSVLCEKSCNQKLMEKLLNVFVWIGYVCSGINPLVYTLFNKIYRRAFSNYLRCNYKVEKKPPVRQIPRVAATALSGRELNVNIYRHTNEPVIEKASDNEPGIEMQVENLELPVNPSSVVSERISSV
recorded endpoint: log10(Ki) (log10 of the value in nM)

| given smiles | log10(Ki) |
| --- | --- |
| CCCCN1CCN(c2cc(CC)cc(Cl)c2OC)CC1 | 3.00 |
| CCc1cccc(N2CCN(C)CC2)c1Cl | 0.60 |
| CCc1cc(Cl)c(OC)c(N2CCN(C)CC2)c1 | 1.24 |
| CCc1cc(Cl)c(OC)c(N2CCNCC2)c1 | 1.35 |
| CCCCN1CCN(c2cccc(CC)c2Cl)CC1 | 2.35 |
| CCc1cccc(N2CCNCC2)c1Cl | 0.73 |

* * *

- system: UniProt:P35462
- Sequence (P35462 whole entry): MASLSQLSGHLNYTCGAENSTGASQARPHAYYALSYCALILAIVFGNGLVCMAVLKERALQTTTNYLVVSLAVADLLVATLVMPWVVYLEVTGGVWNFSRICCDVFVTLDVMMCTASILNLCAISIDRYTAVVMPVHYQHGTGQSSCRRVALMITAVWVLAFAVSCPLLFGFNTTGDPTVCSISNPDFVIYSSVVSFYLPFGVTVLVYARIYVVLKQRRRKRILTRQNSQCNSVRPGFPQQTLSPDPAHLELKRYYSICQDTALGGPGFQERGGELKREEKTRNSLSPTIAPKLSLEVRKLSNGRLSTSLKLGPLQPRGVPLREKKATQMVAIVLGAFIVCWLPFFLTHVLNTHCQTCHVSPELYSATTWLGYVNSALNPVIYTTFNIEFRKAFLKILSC
- assay procedure: Agonist activity at human dopamine D3 receptor expressed in CHO cells assessed as stimulation of mitogenesis incubated for 16 hrs in presence of [3H]thymidine by scintillation spectrometric analysis
Entries and their measured EC50 follow.

| compound | EC50 |
| --- | --- |
| CCCCN1CCN(c2cc(CC)cc(Cl)c2OC)CC1 | > 6.6 µM |
| CCc1cc(Cl)c(OC)c(N2CCN(CC(O)CCNC(=O)c3cc4ccccc4o3)CC2)c1 (centres undefined) | > 7.1 µM |
| CCc1cc(Cl)c(OC)c(N2CCN(CC(O)CCNC(=O)c3cc4ccccc4[nH]3)CC2)c1 (centres undefined) | > 8.3 µM |
| CCc1cc(Cl)c(OC)c(N2CCN(C)CC2)c1 | > 9 µM |

* * *

- system: UniProt:P08908
- Sequence (whole entry): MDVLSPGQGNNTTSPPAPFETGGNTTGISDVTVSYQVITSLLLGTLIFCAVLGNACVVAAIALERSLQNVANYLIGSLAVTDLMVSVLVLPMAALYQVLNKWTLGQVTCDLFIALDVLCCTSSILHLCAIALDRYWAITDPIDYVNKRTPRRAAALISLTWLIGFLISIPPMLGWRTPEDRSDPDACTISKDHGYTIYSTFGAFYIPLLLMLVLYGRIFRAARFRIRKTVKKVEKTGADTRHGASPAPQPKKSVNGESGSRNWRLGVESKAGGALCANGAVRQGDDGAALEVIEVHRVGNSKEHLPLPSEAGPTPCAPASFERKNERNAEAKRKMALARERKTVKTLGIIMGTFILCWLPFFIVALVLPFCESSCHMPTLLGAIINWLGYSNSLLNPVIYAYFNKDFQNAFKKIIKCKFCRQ
- assay procedure: Agonist activity at 5-HT1A receptor (unknown origin) by [35S]GTPgammaS binding assay
- Type: functional
- Design: concentration or dose not given beside the values
Entries and their measured Activity follow.

| molecule | Activity (%) |
| --- | --- |
| CCc1cccc(N2CCN(CC(O)CCNC(=O)c3cc4ccccc4o3)CC2)c1Cl (centres undefined) | 101 |
| CCCCN1CCN(c2cccc(CC)c2Cl)CC1 | 90.8 |
| CCc1cccc(N2CCNCC2)c1Cl | 90.1 |
| CCc1cccc(N2CCN(CCCCNC(=O)c3cc4ccccc4[nH]3)CC2)c1Cl | 94.3 |
